# measured on: HLA-A*02:01 (Homo sapiens, UniProt P04439, D140Y/D185E/D98H/E176V/E277Q/G131W/G231S/I119V/I121R/I166T/I218V/L300P/L318F/N151K/N90K/P208A/P217A/Q86G/Q94H/R138H/R169H/T345S)
# protocol notes: MHC binding assay (UV-ligand exchange, β2m ELISA, peptide exchange yield)
# conditions used: MHC class I binding score; binding to HLA-A*02:01 ranged by peptide exchange yield (UV-ligand exchange, β2m ELISA)

[
  {
    "substance": "558 (GLLENIPRV; listed as Homo sapiens) [compound 558]",
    "Peptide exchange": "“+++” (≧50 = +++)"
  },
  {
    "substance": "271 (LVYPLELYPA; listed as Homo sapiens) [compound 271]",
    "Peptide exchange": "“+++” (≧50 = +++)"
  },
  {
    "substance": "76 (ILIDSIYKV; listed as Homo sapiens) [compound 76]",
    "Peptide exchange": "“+++” (≧50 = +++)"
  }
]
